# experimental.target: p38-2 (Homo sapiens, UniProt Q15759)
# Sequence (Q15759 whole entry, species assumed): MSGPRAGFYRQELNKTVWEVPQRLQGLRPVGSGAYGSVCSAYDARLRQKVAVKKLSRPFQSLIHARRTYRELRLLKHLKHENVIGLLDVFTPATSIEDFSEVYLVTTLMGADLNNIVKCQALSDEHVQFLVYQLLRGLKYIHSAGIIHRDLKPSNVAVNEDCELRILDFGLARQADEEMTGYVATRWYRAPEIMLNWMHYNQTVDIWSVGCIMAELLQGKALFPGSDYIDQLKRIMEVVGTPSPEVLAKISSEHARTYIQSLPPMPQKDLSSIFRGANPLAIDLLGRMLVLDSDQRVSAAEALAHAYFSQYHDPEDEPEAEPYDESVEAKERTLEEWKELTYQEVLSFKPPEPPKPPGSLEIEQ
pIC50: −log10 of the molar value.
test.readout: pIC50

Lookup: Please give the documented pIC50 of O=C1c2ccccc2-c2n[nH]c3cccc1c23 [Compound 1, Anthra[1,9cd]pyrazol-6(2H)-one]
Found: < 4.52

---

Target sequence: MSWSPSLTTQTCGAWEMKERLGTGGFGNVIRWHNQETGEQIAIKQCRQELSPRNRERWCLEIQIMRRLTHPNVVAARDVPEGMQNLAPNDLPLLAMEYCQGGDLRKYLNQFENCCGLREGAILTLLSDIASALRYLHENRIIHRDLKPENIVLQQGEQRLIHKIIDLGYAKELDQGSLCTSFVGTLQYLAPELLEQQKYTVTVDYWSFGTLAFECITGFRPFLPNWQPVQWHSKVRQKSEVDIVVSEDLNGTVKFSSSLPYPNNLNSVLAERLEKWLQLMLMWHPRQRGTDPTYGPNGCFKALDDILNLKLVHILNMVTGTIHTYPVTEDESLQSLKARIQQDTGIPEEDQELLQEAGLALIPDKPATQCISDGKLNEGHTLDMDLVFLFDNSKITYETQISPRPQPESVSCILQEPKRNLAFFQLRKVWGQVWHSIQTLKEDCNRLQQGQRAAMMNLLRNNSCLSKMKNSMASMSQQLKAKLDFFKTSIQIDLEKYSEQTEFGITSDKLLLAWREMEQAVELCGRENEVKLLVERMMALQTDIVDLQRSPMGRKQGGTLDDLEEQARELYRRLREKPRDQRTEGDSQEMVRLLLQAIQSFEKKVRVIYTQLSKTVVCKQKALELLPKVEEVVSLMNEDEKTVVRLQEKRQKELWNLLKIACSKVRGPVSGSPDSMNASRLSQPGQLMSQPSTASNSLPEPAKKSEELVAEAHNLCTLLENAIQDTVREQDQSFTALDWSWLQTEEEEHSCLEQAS
pIC50: −log10 of the molar value.
test.readout: pIC50

Lookup: Please give the documented pIC50 of O=C1c2ccccc2-c2n[nH]c3cccc1c23 [Compound 1, Anthra[1,9cd]pyrazol-6(2H)-one]
Found: < 4.52

Taken from patent US7335676B2.
